- System: MEIS1 mRNA
- experimentalDetails: MEIS1 mRNA expression assay (Quantigene Singleplex) in MOLM14 cells;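 further: MEIS1 transcript levels read by probe hybridization and normalized to RPL28 mRNA, with IC50 fitted to fold changes across a rising compound concentration series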
- Assay type: cell-based, human
- condition: 48 hours incubation
pIC50: −log10 of the molar value.
Reported pIC50 values follow for various compounds
quantityMeasured: pIC50

* CCN(C(=O)c1cc(F)ccc1Oc1nncnc1N1CCC2(C1)CN([C@H](CCCN(C)CCO)C(C)C)C2)C(C)C [Compound 286] | 7.02
* CCN(C(=O)c1cc(F)ccc1Oc1nncnc1N1CCC2(C1)CN([C@H](CCO)C(C)C)C2)C(C)C (single isomer, unassigned) [Compound 214] | 6.85
* CCN(C(=O)c1cc(F)ccc1Oc1nnccc1N1CCC2(C1)CN([C@H](CCCN(C)C)C(C)C)C2)C(C)C (single isomer, unassigned) [Compound 77] | 6.92
